Reference source: the supplement of paper PMC10724198

System: Saccharomyces cerevisiae
method.description: protein stability index of tFT-peptide fusion (C-terminal peptide) (PSI (0-1 scale)); higher = more stable (slower turnover);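 also: PSI is a weighted mean of sequencing reads over stability bins, variants kept only with over 10 reads, mCherry proximal and sfGFP distal, peptide attached via GGGS linker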
condition.label: genetic background: doa10 deletion; temperature: 30 C
Please mark Yes if the recorded protein stability index is equal to or greater than 0.2, and No if it falls below.

Worked cases, answers included:
LPFFSFSPWWFY : Yes
YAFYLFSRILAA : No

Lookup: Reported protein stability index at or above 0.2? `RRLYERNKNNKQ`
Found: Yes

Lookup: Lookup `SVSMYPKPHLIC`
Found: No

====

Test system: Saccharomyces cerevisiae
method.description: protein stability index of tFT-peptide fusion (C-terminal peptide) (PSI (0-1 scale)); higher = more stable (slower turnover)
condition.label: genetic background: wild type; temperature: 30 C
value.type: protein stability index
When you answer, write just the number.

RMLSLFFPLRTL : 0.395

Lookup: Provide the documented protein stability index with Saccharomyces cerevisiae as the system for `EFKLINLETQRC`
Found: 0.706

Lookup: What would you report for `CLEEVVCRVRGA` ?
Found: 0.643
